# Emax per entry
- Measurement Target: hCB1R (Homo sapiens)
- Sequence (P21554 whole entry): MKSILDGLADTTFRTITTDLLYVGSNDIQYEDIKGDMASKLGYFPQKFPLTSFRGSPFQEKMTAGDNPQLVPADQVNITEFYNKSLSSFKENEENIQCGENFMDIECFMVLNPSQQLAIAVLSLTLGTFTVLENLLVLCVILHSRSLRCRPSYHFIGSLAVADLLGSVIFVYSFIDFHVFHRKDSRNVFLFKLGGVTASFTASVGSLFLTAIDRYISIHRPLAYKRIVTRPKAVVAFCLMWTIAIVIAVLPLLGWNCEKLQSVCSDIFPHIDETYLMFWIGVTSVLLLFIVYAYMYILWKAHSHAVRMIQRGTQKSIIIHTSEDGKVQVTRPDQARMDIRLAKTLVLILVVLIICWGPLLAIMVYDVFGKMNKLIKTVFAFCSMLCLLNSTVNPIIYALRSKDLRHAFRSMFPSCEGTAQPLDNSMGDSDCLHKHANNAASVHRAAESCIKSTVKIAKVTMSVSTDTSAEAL
- Assay Summary: HTRF cAMP assay, agonist / inverse agonist mode
- Format: cell-based
- Parameters: expressed in transfected cells; host or cells: CHO
Quantity Measured: Emax (%)

[[record]]
molecule = "CCC(CC)(NC(=O)c1cc(-c2cc(C(F)(F)F)ccc2C(F)(F)F)n(C[C@H]2CCCO2)c1C)C(=O)NCCOCCOCCNC(=O)c1ccc2c(c1)C(=O)OC21c2ccc(N(C)C)cc2Oc2cc(N(C)C)ccc21"
measurement_target = "hCB1R (Homo sapiens)"
quantity_measured = "Emax"
number = -64

[[record]]
molecule = "CCC(CC)(NC(=O)c1cc(-c2cc(C(F)(F)F)ccc2C(F)(F)F)n(C[C@H]2CCCO2)c1C)C(=O)NCCOCCOCCNC(=O)OC(C)(C)C [Compound 22b]"
measurement_target = "hCB1R (Homo sapiens)"
quantity_measured = "Emax"
number = -69

[[record]]
molecule = "CCC(CC)(NC(=O)c1nn(-c2ccc(Cl)cc2Cl)c(-c2ccc(Cl)cc2)c1C)C(=O)NCCOCCOCCNC(=O)OC(C)(C)C [Compound 23b]"
measurement_target = "hCB1R (Homo sapiens)"
quantity_measured = "Emax"
number = -44

